// provenance: the supplement of paper PMC10307832

Tested on: NCI-H1944
procedure_text: relative viability (nuclei count vs DMSO), 5 days (fraction); higher = more cells survive
cond: first compound 8 µM

# molecule, relative viability
data = [
    ("O=c1[nH]c2ccccc2n1C1CCN(CCCC(c2ccc(F)cc2)c2ccc(F)cc2)CC1 [Pimozide] + Cc1cc(Nc2cc(N3CCN(C)CC3)nc(Sc3ccc(NC(=O)C4CC4)cc3)n2)n[nH]1 [Tozasertib] (partner 0.1 µM)", 0.23),
    ("O=c1[nH]c2ccccc2n1C1CCN(CCCC(c2ccc(F)cc2)c2ccc(F)cc2)CC1 [Pimozide] + Cc1nc(Nc2ncc(C(=O)Nc3c(C)cccc3Cl)s2)cc(N2CCN(CCO)CC2)n1 [Dasatinib] (partner 0.075 µM)", 0.197),
    ("O=c1[nH]c2ccccc2n1C1CCN(CCCC(c2ccc(F)cc2)c2ccc(F)cc2)CC1 [Pimozide] + CC(=O)Nc1cccc(-n2c(=O)n(C3CC3)c(=O)c3c(Nc4ccc(I)cc4F)n(C)c(=O)c(C)c32)c1 [Trametinib] (partner 0.02 µM)", 0.409),
    ("O=c1[nH]c2ccccc2n1C1CCN(CCCC(c2ccc(F)cc2)c2ccc(F)cc2)CC1 [Pimozide] + CCNC(=O)c1noc(-c2cc(C(C)C)c(O)cc2O)c1-c1ccc(CN2CCOCC2)cc1 [Luminespib] (partner 0.01 µM)", 0.719),
    ("O=c1[nH]c2ccccc2n1C1CCN(CCCC(c2ccc(F)cc2)c2ccc(F)cc2)CC1 [Pimozide] + N=C(N)NC(=N)NCCc1ccccc1 [Phenformin] (partner 250 µM)", 0.198),
    ("O=c1[nH]c2ccccc2n1C1CCN(CCCC(c2ccc(F)cc2)c2ccc(F)cc2)CC1 [Pimozide] + CS(=O)(=O)CCNCc1ccc(-c2ccc3ncnc(Nc4ccc(OCc5cccc(F)c5)c(Cl)c4)c3c2)o1 [Lapatinib] (partner 2 µM)", 0.794),
    ("O=c1[nH]c2ccccc2n1C1CCN(CCCC(c2ccc(F)cc2)c2ccc(F)cc2)CC1 [Pimozide] + O=C(c1cc(Cc2n[nH]c(=O)c3ccccc23)ccc1F)N1CCN(C(=O)C2CC2)CC1 [Olaparib] (partner 8 µM)", 0.413),
    ("O=c1[nH]c2ccccc2n1C1CCN(CCCC(c2ccc(F)cc2)c2ccc(F)cc2)CC1 [Pimozide] + CC1(C)CCC(c2ccc(Cl)cc2)=C(CN2CCN(c3ccc(C(=O)NS(=O)(=O)c4ccc(N[C@H](CCN5CCOCC5)CSc5ccccc5)c(S(=O)(=O)C(F)(F)F)c4)cc3)CC2)C1 [Navitoclax] (partner 0.5 µM)", 0.995),
]

----------
Entries and their measured relative viability follow.
Test system: LC-2-ad
procedure_text: relative viability (nuclei count vs DMSO), 5 days (fraction); higher = more cells survive
cond: first compound 0.4 µM

# molecule, relative viability
records = [
    ("Cc1sc2c(c1C)C(c1ccc(Cl)cc1)=N[C@@H](CC(=O)OC(C)(C)C)c1nnc(C)n1-2 [JQ1] + CC1(C)CCC(c2ccc(Cl)cc2)=C(CN2CCN(c3ccc(C(=O)NS(=O)(=O)c4ccc(N[C@H](CCN5CCOCC5)CSc5ccccc5)c(S(=O)(=O)C(F)(F)F)c4)cc3)CC2)C1 [Navitoclax] (partner 0.5 µM)", 0.376),
    ("Cc1sc2c(c1C)C(c1ccc(Cl)cc1)=N[C@@H](CC(=O)OC(C)(C)C)c1nnc(C)n1-2 [JQ1] + CC(=O)c1c(C)c2cnc(Nc3ccc(N4CCNCC4)cn3)nc2n(C2CCCC2)c1=O [Palbociclib] (partner 0.5 µM)", 0.342),
    ("Cc1sc2c(c1C)C(c1ccc(Cl)cc1)=N[C@@H](CC(=O)OC(C)(C)C)c1nnc(C)n1-2 [JQ1] + O=C(c1cc(Cc2n[nH]c(=O)c3ccccc23)ccc1F)N1CCN(C(=O)C2CC2)CC1 [Olaparib] (partner 8 µM)", 0.332),
    ("Cc1sc2c(c1C)C(c1ccc(Cl)cc1)=N[C@@H](CC(=O)OC(C)(C)C)c1nnc(C)n1-2 [JQ1] + Cc1nc(NC(=O)N2CCC[C@H]2C(N)=O)sc1-c1ccnc(C(C)(C)C(F)(F)F)c1 [Alpelisib] (partner 2 µM)", 0.54),
    ("Cc1sc2c(c1C)C(c1ccc(Cl)cc1)=N[C@@H](CC(=O)OC(C)(C)C)c1nnc(C)n1-2 [JQ1] + Cc1nc(Nc2ncc(C(=O)Nc3c(C)cccc3Cl)s2)cc(N2CCN(CCO)CC2)n1 [Dasatinib] (partner 0.075 µM)", 0.219),
]

----------
Test system: LCLC-103H
procedure_text: relative viability (nuclei count vs DMSO), 5 days (fraction); higher = more cells survive
cond: first compound 0.5 µM
Item-by-item account of relative viability

# compound, experimental_system, relative viability
rows = [
    ("COc1cc2nccc(Oc3ccc(NC(=O)Nc4cc(C)on4)c(Cl)c3)c2cc1OC [Tivozanib] + Cc1nc(NC(=O)N2CCC[C@H]2C(N)=O)sc1-c1ccnc(C(C)(C)C(F)(F)F)c1 [Alpelisib] (partner 2 µM)", "LCLC-103H", 1.01),
    ("Nc1ccn([C@@H]2O[C@H](CO)[C@@H](O)[C@@H]2O)c(=O)n1 [Cytarabine] + CCNC(=O)c1noc(-c2cc(C(C)C)c(O)cc2O)c1-c1ccc(CN2CCOCC2)cc1 [Luminespib] (partner 0.01 µM)", "LCLC-103H", 0.947),
]

----------
Test system: NCI-H1975
procedure_text: relative viability (nuclei count vs DMSO), 5 days (fraction); higher = more cells survive
cond: first compound 8 µM
Overview of reported relative viability across a group of compounds:

# compound, relative viability
data = [
    ("O=c1[nH]c2ccccc2n1C1CCN(CCCC(c2ccc(F)cc2)c2ccc(F)cc2)CC1 [Pimozide] + Cc1nc(Nc2ncc(C(=O)Nc3c(C)cccc3Cl)s2)cc(N2CCN(CCO)CC2)n1 [Dasatinib] (partner 0.075 µM)", 0.294),
    ("O=c1[nH]c2ccccc2n1C1CCN(CCCC(c2ccc(F)cc2)c2ccc(F)cc2)CC1 [Pimozide] + O=C(c1cc(Cc2n[nH]c(=O)c3ccccc23)ccc1F)N1CCN(C(=O)C2CC2)CC1 [Olaparib] (partner 8 µM)", 0.625),
    ("O=c1[nH]c2ccccc2n1C1CCN(CCCC(c2ccc(F)cc2)c2ccc(F)cc2)CC1 [Pimozide] + COc1cc2c(Oc3ccc(NC(=O)C4(C(=O)Nc5ccc(F)cc5)CC4)cc3F)ccnc2cc1OCCCN1CCOCC1 [Foretinib] (partner 0.25 µM)", 0.952),
    ("O=c1[nH]c2ccccc2n1C1CCN(CCCC(c2ccc(F)cc2)c2ccc(F)cc2)CC1 [Pimozide] + Cc1cc(Nc2cc(N3CCN(C)CC3)nc(Sc3ccc(NC(=O)C4CC4)cc3)n2)n[nH]1 [Tozasertib] (partner 0.1 µM)", 0.714),
    ("O=c1[nH]c2ccccc2n1C1CCN(CCCC(c2ccc(F)cc2)c2ccc(F)cc2)CC1 [Pimozide] + CS(=O)(=O)CCNCc1ccc(-c2ccc3ncnc(Nc4ccc(OCc5cccc(F)c5)c(Cl)c4)c3c2)o1 [Lapatinib] (partner 2 µM)", 0.751),
    ("O=c1[nH]c2ccccc2n1C1CCN(CCCC(c2ccc(F)cc2)c2ccc(F)cc2)CC1 [Pimozide] + O=C(CCCCCCC(=O)Nc1ccccc1)NO [Vorinostat] (partner 1 µM)", 0.563),
    ("O=c1[nH]c2ccccc2n1C1CCN(CCCC(c2ccc(F)cc2)c2ccc(F)cc2)CC1 [Pimozide] + N=C(N)NC(=N)NCCc1ccccc1 [Phenformin] (partner 250 µM)", 0.391),
]

----------
System: NCI-H2405
procedure_text: relative viability (nuclei count vs DMSO), 5 days (fraction); higher = more cells survive
cond: first compound 0.1581 µM

# compound, relative viability
records = [
    ("COc1cc2nccc(Oc3ccc(NC(=O)Nc4cc(C)on4)c(Cl)c3)c2cc1OC [Tivozanib] + Nc1ncn([C@H]2C[C@H](O)[C@@H](CO)O2)c(=O)n1 [Decitabine] (partner 2 µM)", 0.706),
    ("COc1cc2nccc(Oc3ccc(NC(=O)Nc4cc(C)on4)c(Cl)c3)c2cc1OC [Tivozanib] + O=C(c1cc(Cc2n[nH]c(=O)c3ccccc23)ccc1F)N1CCN(C(=O)C2CC2)CC1 [Olaparib] (partner 8 µM)", 1.01),
    ("COc1cc2nccc(Oc3ccc(NC(=O)Nc4cc(C)on4)c(Cl)c3)c2cc1OC [Tivozanib] + CS(=O)(=O)CCNCc1ccc(-c2ccc3ncnc(Nc4ccc(OCc5cccc(F)c5)c(Cl)c4)c3c2)o1 [Lapatinib] (partner 2 µM)", 1.01),
    ("COc1cc2nccc(Oc3ccc(NC(=O)Nc4cc(C)on4)c(Cl)c3)c2cc1OC [Tivozanib] + CC(=O)c1c(C)c2cnc(Nc3ccc(N4CCNCC4)cn3)nc2n(C2CCCC2)c1=O [Palbociclib] (partner 0.5 µM)", 0.527),
    ("Nc1ccn([C@@H]2O[C@H](CO)[C@@H](O)[C@@H]2O)c(=O)n1 [Cytarabine] + N=C(N)NC(=N)NCCc1ccccc1 [Phenformin] (partner 250 µM)", 0.238),
    ("Nc1ccn([C@@H]2O[C@H](CO)[C@@H](O)[C@@H]2O)c(=O)n1 [Cytarabine] + CC1(C)CCC(c2ccc(Cl)cc2)=C(CN2CCN(c3ccc(C(=O)NS(=O)(=O)c4ccc(N[C@H](CCN5CCOCC5)CSc5ccccc5)c(S(=O)(=O)C(F)(F)F)c4)cc3)CC2)C1 [Navitoclax] (partner 0.5 µM)", 0.373),
    ("Nc1ccn([C@@H]2O[C@H](CO)[C@@H](O)[C@@H]2O)c(=O)n1 [Cytarabine] + Cc1nc(Nc2ncc(C(=O)Nc3c(C)cccc3Cl)s2)cc(N2CCN(CCO)CC2)n1 [Dasatinib] (partner 0.075 µM)", 0.144),
    ("Nc1ccn([C@@H]2O[C@H](CO)[C@@H](O)[C@@H]2O)c(=O)n1 [Cytarabine] + C[C@@H](Oc1cc(-c2cnn(C3CCNCC3)c2)cnc1N)c1c(Cl)ccc(F)c1Cl [Crizotinib] (partner 1 µM)", 0.464),
    ("COc1cc2nccc(Oc3ccc(NC(=O)Nc4cc(C)on4)c(Cl)c3)c2cc1OC [Tivozanib] + CC1(C)CCC(c2ccc(Cl)cc2)=C(CN2CCN(c3ccc(C(=O)NS(=O)(=O)c4ccc(N[C@H](CCN5CCOCC5)CSc5ccccc5)c(S(=O)(=O)C(F)(F)F)c4)cc3)CC2)C1 [Navitoclax] (partner 0.5 µM)", 1.02),
    ("COc1cc2nccc(Oc3ccc(NC(=O)Nc4cc(C)on4)c(Cl)c3)c2cc1OC [Tivozanib] + C[C@@H](Oc1cc(-c2cnn(C3CCNCC3)c2)cnc1N)c1c(Cl)ccc(F)c1Cl [Crizotinib] (partner 1 µM)", 0.903),
]
